Some compounds, each annotated with its measured melting point.
PROPERTY NAME: melting point

>>> result("Cc1c(NC(=O)N2CCC(c3ccc(Cl)cc3)CC2)ccc2cc(CN3CCCC3)cnc12")
"203 to 205 °C"
>>> result("COc1cccc(OC)c1C(=O)NCC(=O)N1c2ccccc2N(Cc2ccccc2)C(=O)[C@H]2CCC[C@H]21 (relative stereo)")
"182 to 184 °C"
>>> result("CCCCCCCCNC(=O)OC1CCN(C(=O)Oc2ccc(Oc3ccccc3)cc2)CC1")
"73 to 75 °C"
>>> result("O=C(O)c1oc(=O)c2ccc(Cl)cc2c1-c1ccccc1")
"206 to 208 °C"
>>> result("O=c1oc2c(c(O)c1C(c1ccccc1)C1CC1)CCCCCCCC2 (configuration not stated)")
"87.6 to 90.4 °C"
>>> result("CC(C)(Cc1cc([N+](=O)[O-])c(F)cc1Cl)C(=O)O")
"102 to 104 °C"
>>> result("CCCCCCCCCCCC(=O)c1cn(CCCC(=O)O)c2ccccc12")
"88 to 90 °C"
>>> result("COc1ccccc1-n1c(=O)[nH]c2c(C(N)=O)nc(-c3cccc(OC(F)(F)F)c3)nc21")
"269 to 272 °C"
>>> result("Cc1cc(O)c(N)c([N+](=O)[O-])c1")
"197 to 199 °C"
>>> result("COc1cc2ccc(CC(=S)N3CCOCC3)cc2c(C)c1OC")
"100 to 103 °C"
>>> result("CC(=O)c1c(CO)[nH]c(-c2ccncc2)c1C")
"163 to 165 °C"
>>> result("CN1CCCCCC1=NC(=O)Nc1cccc(Cl)c1")
"115 to 118 °C"
>>> result("CC(C)c1cc(-c2ccc(F)c3ccccc23)nc(Nc2ccccc2)n1")
"85.7 to 86.3 °C"
>>> result("Cn1nc(N2c3ccccc3C[C@H]2C(=O)O)ccc1=O")
"245 to 247 °C"
>>> result("CC1(C)OC(=O)N(Cc2ccccc2[N+](=O)[O-])C1=O")
"134 °C"
>>> result("O=c1[nH][nH]c(C(F)(F)F)c1Cc1ccc2c(c1)OCO2")
"196 to 197 °C"
>>> result("O=c1[nH]c(N[N+](=O)[O-])ncc1Cc1ccn(Cc2ccccc2)c(=O)c1")
"200 to 201 °C"
>>> result("O=C(SCSc1c[nH]nn1)c1ccccc1")
"72.5 to 73.5 °C"
>>> result("N#CC1=CC(Br)=NC1(N)C#N (configuration not stated)")
"> 210 °C"
>>> result("CCCN(CCC)C(=O)CNc1nc(-c2ccccc2)ncc1CO")
"167 to 168 °C"
>>> result("Cn1nc2ccccc2c1C(=O)NC1CCN(CCc2ccc(F)cc2)C1 (configuration not stated)")
"117 to 119 °C"
>>> result("COC(=O)Nc1nc2ccc(Oc3ccncc3)cc2[nH]1")
"220 to 224 °C"
